tested-system: Polyketide synthase Pks13 (Mycobacterium tuberculosis (strain ATCC 25618 / H37Rv)) (UniProt I6X8D2)
Sequence (I6X8D2 whole entry): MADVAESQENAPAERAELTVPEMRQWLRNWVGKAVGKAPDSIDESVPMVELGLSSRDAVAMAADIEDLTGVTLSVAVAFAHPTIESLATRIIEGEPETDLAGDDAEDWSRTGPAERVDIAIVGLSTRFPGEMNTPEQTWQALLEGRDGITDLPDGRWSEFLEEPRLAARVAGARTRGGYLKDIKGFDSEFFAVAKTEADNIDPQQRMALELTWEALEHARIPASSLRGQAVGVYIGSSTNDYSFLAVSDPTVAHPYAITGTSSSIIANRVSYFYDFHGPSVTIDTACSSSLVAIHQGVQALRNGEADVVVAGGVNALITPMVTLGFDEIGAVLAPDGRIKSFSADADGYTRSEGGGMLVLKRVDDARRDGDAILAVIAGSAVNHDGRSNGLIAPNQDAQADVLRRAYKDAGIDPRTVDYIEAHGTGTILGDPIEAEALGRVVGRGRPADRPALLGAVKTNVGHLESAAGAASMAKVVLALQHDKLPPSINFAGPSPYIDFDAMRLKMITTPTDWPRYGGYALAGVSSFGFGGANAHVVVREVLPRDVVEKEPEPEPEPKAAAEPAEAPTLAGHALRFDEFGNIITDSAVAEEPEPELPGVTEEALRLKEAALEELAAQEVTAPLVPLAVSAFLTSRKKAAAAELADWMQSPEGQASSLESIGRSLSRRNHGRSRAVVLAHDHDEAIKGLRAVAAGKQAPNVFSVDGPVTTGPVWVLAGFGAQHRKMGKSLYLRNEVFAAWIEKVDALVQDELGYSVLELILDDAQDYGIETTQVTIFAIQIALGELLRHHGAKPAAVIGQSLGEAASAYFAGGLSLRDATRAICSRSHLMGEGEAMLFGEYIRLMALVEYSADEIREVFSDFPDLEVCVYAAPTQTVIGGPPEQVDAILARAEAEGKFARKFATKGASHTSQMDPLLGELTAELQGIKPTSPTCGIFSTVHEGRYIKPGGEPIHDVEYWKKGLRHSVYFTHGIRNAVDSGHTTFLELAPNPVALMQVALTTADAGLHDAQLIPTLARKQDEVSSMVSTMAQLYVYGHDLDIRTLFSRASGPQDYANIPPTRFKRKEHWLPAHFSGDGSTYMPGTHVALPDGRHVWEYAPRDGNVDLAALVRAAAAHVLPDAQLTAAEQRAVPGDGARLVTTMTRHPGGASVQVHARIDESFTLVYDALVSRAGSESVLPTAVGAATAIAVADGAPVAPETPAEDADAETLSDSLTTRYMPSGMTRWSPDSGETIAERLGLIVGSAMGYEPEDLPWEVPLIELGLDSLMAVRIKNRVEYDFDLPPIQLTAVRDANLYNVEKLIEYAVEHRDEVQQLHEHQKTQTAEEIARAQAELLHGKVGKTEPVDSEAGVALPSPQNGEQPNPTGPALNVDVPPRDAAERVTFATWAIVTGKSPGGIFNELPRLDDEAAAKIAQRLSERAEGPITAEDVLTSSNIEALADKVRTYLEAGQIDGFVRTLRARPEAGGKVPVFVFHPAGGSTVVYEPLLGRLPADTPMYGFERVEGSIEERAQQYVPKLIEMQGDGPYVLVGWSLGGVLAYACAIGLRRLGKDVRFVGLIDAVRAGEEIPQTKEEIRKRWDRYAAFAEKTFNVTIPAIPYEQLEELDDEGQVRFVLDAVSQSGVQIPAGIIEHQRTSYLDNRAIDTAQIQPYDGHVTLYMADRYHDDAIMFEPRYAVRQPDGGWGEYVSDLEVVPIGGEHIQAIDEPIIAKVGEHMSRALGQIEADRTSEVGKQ
assay-info: Mycobacterium tuberculosis Polyketide synthase 13 Thioesterase (PKS13)
Format: functional
Design: scale not given: in the data most compounds retested in dose-response had high values
study-conditions: 30 µM
Screen size: about 67,000 compounds; about 300 (0.45%) showed an effect of 50% or more. This is one part of a sample in which strong results are shown more often than they occur.
Listed here: items and their measured Percent Effect.
Lab book: enter the figure in %, no units written.

Check out these entries, answers already filled in.
[[record]]
compound = "Cc1ccc(C(=O)N2CC[C@H]3[C@@H]2CCC(=O)N3c2cccnc2)o1"
value_type = "Percent Effect"
readout_units = "%"
numeric_result = -561

[[record]]
compound = "O=C(c1ccccc1)N1C[C@@H]2CC[C@H](C1)N(Cc1cc(F)ccc1Cl)C2"
value_type = "Percent Effect"
readout_units = "%"
numeric_result = 3.66

[[record]]
compound = "Cc1cc(C)c2cc(CNCc3ccccc3)c3nn(C)c(=O)n3c2c1"
value_type = "Percent Effect"
readout_units = "%"
numeric_result = -72.8

[[record]]
compound = "Cc1cccc(CN2CC[C@H]3[C@H]2CCN3C(=O)c2cnn(C)c2)n1"
value_type = "Percent Effect"
readout_units = "%"
numeric_result = 3.27


Supply measured Percent Effect of "Cc1cc(C)c2cc(CNC(C)C)c3nn(C)c(=O)n3c2c1" in your reply.
52.3

Return Percent Effect for the following compound: "CN(C)S(=O)(=O)N1CC[C@]2(O)CCN(c3ncccn3)C[C@@H]2C1"
5.3

Determine its reported Percent Effect: "COCCNC(=O)C[C@@H]1COC[C@H]2CN(Cc3cccnc3)C[C@@H]12"
7.6

Look up and report measured Percent Effect for this entry: "CCCNCc1cc2c(C)cc(C)cc2n2c(=O)n(C)nc12"
33.4

Report measured Percent Effect; entry is "Cc1cc(C)c2cc(CNC3CCCCC3)c3nn(C)c(=O)n3c2c1"
10.2

Indicate its recorded Percent Effect; the compound in question is "CCS(=O)(=O)N1C[C@H]2CC[C@](O)(c3ccc(C)cc3)[C@H]2C1"
8.05

For the compound "COC[C@@H]1CC[C@H]2[C@H](CCN2S(=O)(=O)Cc2ccccc2)O1" , give its reported Percent Effect.
-27.3

---

# Percent Effect annotations
tested-system: Polyketide synthase Pks13 (Mycobacterium tuberculosis (strain ATCC 25618 / H37Rv)) (UniProt I6X8D2)
assay-info: Mycobacterium tuberculosis Polyketide synthase 13 Thioesterase (PKS13)
Format: functional
Design: scale not given: in the data most compounds retested in dose-response had high values
study-conditions: 30 µM
Hit rate of the full screen: of about 67,000 compounds, about 300 (0.45%) showed an effect of 50% or more. This excerpt belongs to a sample that is enriched for strong results.
Dear colleague, please return just the value in %, with no unit written.

Before answering, review these 6 worked examples.
[[record]]
compound = "CC1=CC[C@@H]2CN(C(=O)c3ccc(-c4cc[nH]n4)cc3)C[C@@H]2C1"
value_type = "Percent Effect"
numeric_result = -21.5

[[record]]
compound = "O=C1CC(c2ccc(F)cc2)c2snc(C(=O)O)c2N1 (stereo not drawn)"
value_type = "Percent Effect"
numeric_result = -1.41

[[record]]
compound = "O=C1CC(c2cccc(Cl)c2)c2snc(C(=O)O)c2N1 (stereo not drawn)"
value_type = "Percent Effect"
numeric_result = -0.952

[[record]]
compound = "CCc1nnc(CNc2ccc(CC(=O)N3CCSCC3)cc2)o1"
value_type = "Percent Effect"
numeric_result = 5.6

[[record]]
compound = "CC(NC(=O)Nc1cccnc1N1CCCC1)c1ccncc1 (stereo not drawn)"
value_type = "Percent Effect"
numeric_result = 0.204

[[record]]
compound = "CC(NC(=O)Nc1cccnc1N1CCCC1)c1nncn1C (stereo not drawn)"
value_type = "Percent Effect"
numeric_result = 56


Read off the recorded Percent Effect for "CC1(C)O[C@@](C)([C@H]2CC3(CCN(c4cnccn4)CC3)CO2)CC[C@@H]1O"
-3.99

Indicate the recorded Percent Effect value for this compound: "NC(=O)C1CCN(C(=O)NCc2ccc3c(c2)OCCO3)CC1"
-21.9

Recall and state the measured Percent Effect for "O=C(CO[C@@H]1CC[C@H]2[C@H]1OCCN2c1ncccn1)N1CCCC1" .
-31.3

Supply recorded Percent Effect for "CN1CCO[C@H]2CN(S(=O)(=O)c3ccc(C#N)cc3)C[C@H]21" here.
-7.61

Quote Percent Effect reported for Cn1cc(-c2ccnc(NCC3CCN(Cc4ccccc4)C3)n2)cn1 (stereo not drawn) please.
60.9

Find the measured Percent Effect of Cc1noc(C)c1CCC(=O)NCC1(O)CCCN(c2ccccn2)C1 (stereo not drawn) and report it.
9.52

Look up and state reported Percent Effect for "O=C(NCc1ccc2c(c1)OCCO2)N1CCC(CO)CC1"
52.7

Retrieve Percent Effect measured for "CCc1noc(CNc2ccc(CC(=O)N3CCSCC3)cc2)n1" and print it.
-12.3

Identify Percent Effect associated with the compound "CCCN1CCN(C(=O)c2ccc(Cl)cn2)[C@H]2CS(=O)(=O)C[C@H]21"
5.71

Specify reported Percent Effect for the compound shown: "Cc1noc(CNc2ccc(CC(=O)N3CCSCC3)cc2)n1"
70.3

Consider the compound Cc1cnn(CC2CCCN2Cc2cc(=O)n3ccccc3n2)c1 (stereo not drawn) . State its measured Percent Effect.
2.94

Note Percent Effect for the compound shown: O=C1CC(NCc2cnc(N3CCCC3)nc2)CN1c1ccccc1 (stereo not drawn)
65.7

Tell me its Percent Effect given O=C1CC(c2ccc(F)c(F)c2)c2snc(C(=O)O)c2N1 (stereo not drawn) as the entry.
68.8

Kindly indicate its recorded Percent Effect. Item: "CCN(CC)[C@@H]1CN(Cc2cnn(C)c2)[C@@H]2COC[C@H]12"
-19.3

Give Percent Effect for the following compound: COc1ncccc1NC(=O)NC(C)c1nncn1C (stereo not drawn)
-5.35

Output measured Percent Effect for this item: O=C1CC(NCc2cnc(-c3cccs3)nc2)CN1c1ccccc1 (stereo not drawn)
-18.1

Recall and state the measured Percent Effect for Cc1n[nH]c(C)c1CCC(=O)NCC1(O)CCN(c2ccccn2)C1 (stereo not drawn) .
61.1

// data source = ChEMBL document CHEMBL3988442
